Values compiled from ChEMBL document CHEMBL4689842.

test system: HEK-293T; assay: Multiplex assay against HEK293T; format: toxicity, cell-based; conditions: human, 24 h, 1 µM, compound concentration 1 uM, replicate 1
Endpoint: Population Pyknosed Nuclei (%)

Molecule: CCN(CC)CCCCNc1ncc2cc(-c3cc(OC)cc(OC)c3)c(NC(=O)NC(C)(C)C)nc2n1 [PD-173074]
Assayed Target: HEK-293T
Observed Value: 8
//
Molecule: c1cn2cc(-c3ccc4cn[nH]c4c3)nc(Nc3ccc(N4CCOCC4)cc3)c2n1 [ENTOSPLETINIB]
Assayed Target: HEK-293T
Observed Value: 41
//
Molecule: COc1cccc([C@@H](C)NCCCc2ccccc2Cl)c1.Cl [TECALCET HYDROCHLORIDE]
Assayed Target: HEK-293T
Observed Value: 26
//
Molecule: CC[C@H](C)C(=O)O[C@H]1C[C@@H](C)C=C2C=C[C@H](C)[C@H](CC[C@@H]3C[C@@H](O)CC(=O)O3)[C@H]21 [LOVASTATIN]
Assayed Target: HEK-293T
Observed Value: 52
//
Molecule: CN1CCN(c2ccc(OC(F)(F)F)c(Nc3ncc4c(n3)-c3c(c(C(N)=O)nn3CCO)CC4)c2)CC1 [ONVANSERTIB]
Assayed Target: HEK-293T
Observed Value: 60
//
Molecule: Cn1cc(-c2[nH]c3cc(NC(=O)[C@H](N)C4CCCCC4)cc4c3c2C=NNC4=O)cn1
Assayed Target: HEK-293T
Observed Value: 65
//
Molecule: Cc1cc(C)cc(-c2cnc3cc(Cl)c(-c4cccc(O)c4)cc3c2OCCCN)c1
Assayed Target: HEK-293T
Observed Value: 57
//
Molecule: CN1CCC[C@@H]1CCO[C@](C)(c1ccccc1)c1ccc(Cl)cc1.O=C(O)/C=C/C(=O)O [CLEMASTINE FUMARATE]
Assayed Target: HEK-293T
Observed Value: 68

* * *

test system: HEK-293T; experiment: Multiplex assay against HEK293T; assay type: toxicity, cell-based; details: human, 12 h, 1 µM, compound concentration 1 uM, replicate 2
Label scheme, based on Population Membrane Permeable-Phenotype (%): low class: < 4%; middle class: ≥ 4% and < 10%; high class: ≥ 10%

Compound: C=CC(=O)Nc1cc2c(Nc3ccc(F)c(Cl)c3)ncnc2cc1OCCCN1CCOCC1.Cl.Cl [CANERTINIB DIHYDROCHLORIDE]
Category Label: high class
--
Compound: CN(C)CC#Cc1ccc(OCCCc2sc(N3CCc4cccc(C(=O)Nc5nc6ccccc6s5)c4C3)nc2C(=O)O)c(F)c1 [A-1155463]
Category Label: middle class
--
Compound: O=C1NCN(c2ccccc2)C12CCN(CCCOc1ccc(F)cc1)CC2 [SPIRAMIDE]
Category Label: high class
--
Compound: Cc1nc(-c2cn3c(n2)-c2ccc(-c4cnn(C(C)(C)C(N)=O)c4)cc2OCC3)n(C(C)C)n1 [TASELISIB]
Category Label: low class
--
Compound: CN1CCN(CCOc2cc(OC3CCOCC3)c3c(Nc4c(Cl)ccc5c4OCO5)ncnc3c2)CC1 [SARACATINIB]
Category Label: low class
--
Compound: Cc1csc2c(N[C@@H](C)CN3CCN(S(=O)(=O)c4ccc(Cl)c(Cl)c4)CC3)ncnc12
Category Label: high class
--
Compound: COc1cc(-n2cnc3cc(-c4ccc(Cl)cc4)sc3c2=O)ccc1OCCN1CCCC1
Category Label: middle class
--
Compound: C=CC(=O)Nc1ccc2ncnc(Nc3ccc(OCc4cccc(F)c4)c(Cl)c3)c2c1.Cc1ccc(S(=O)(=O)O)cc1
Category Label: middle class
--
Compound: OC1(c2ccc(Cl)cc2)CCN(Cc2c[nH]c3ccccc23)CC1
Category Label: middle class
--
Compound: CC(C)(O)CNc1ncc(-c2ccnc(Nc3ccnc(Cl)c3)n2)c(CC2CC2)n1
Category Label: high class
